Study the reported pIC50 values for the protein given by its sequence given below; they originate from different publications.
Sequence of the target: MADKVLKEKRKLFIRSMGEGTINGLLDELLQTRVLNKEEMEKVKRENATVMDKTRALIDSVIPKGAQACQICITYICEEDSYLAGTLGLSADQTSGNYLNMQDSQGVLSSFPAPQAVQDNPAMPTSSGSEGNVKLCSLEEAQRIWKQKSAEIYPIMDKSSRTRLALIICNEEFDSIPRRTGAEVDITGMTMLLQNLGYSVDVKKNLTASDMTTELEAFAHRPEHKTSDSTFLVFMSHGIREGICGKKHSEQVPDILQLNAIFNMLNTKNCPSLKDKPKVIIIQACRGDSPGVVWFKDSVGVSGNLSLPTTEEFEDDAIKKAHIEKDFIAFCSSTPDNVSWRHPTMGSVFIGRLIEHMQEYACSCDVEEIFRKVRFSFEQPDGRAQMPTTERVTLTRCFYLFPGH
pIC50: −log10 of the molar value.

compound	relation.operator	pIC50
O=C1C[C@H](NC(=O)[C@@H]2COC[C@@H]3CCCC[C@H](NC(=O)c4ccc5ccccc5c4)C(=O)N32)C(O)O1 (stereo partly drawn)	=	9.00
COc1ccc(CN2C(=O)C(=O)c3cc(S(=O)(=O)N4CC[C@H]4COc4ccccc4)ccc32)cc1	<	4.30
COc1ccc(CCCNC(=O)C[C@H](C(=O)N[C@H](C=O)CC(=O)O)C(C)C)cc1	=	6.39
CC(C)[C@H](CC(=O)NCCc1cn(C)c2ccccc12)C(=O)NC(CC(=O)O)C(=O)CNS(=O)(=O)CC12CCC(CC1=O)C2(C)C (stereo partly drawn)	=	9.40
O=C1C(=O)N(Cc2ccc(OCCF)cc2)c2ccc(S(=O)(=O)N3CC[C@H]3COc3ccc(F)cc3F)cc21	<	4.30
O=C(CN1CC(CNCc2ccccc2)=CC[C@H](NC(=O)c2ccc3ccccc3c2)C1=O)N[C@H]1CC(=O)OC1O (stereo partly drawn)	=	8.15
COc1nnc(-c2ccncc2)cc1C(N)=O	<	3.60
CCOc1ccc(OCC(=O)OC)cc1CC(=O)N[C@H](C(=O)N[C@@H](CC(=O)O)C(=O)CSCc1c(F)cccc1Cl)C(C)C	=	5.19
